tested on: UO-31 renal; test: NCI-60 one-dose screen, 48 h (100 = growth as untreated, 0 = no growth, -100 = all killed); conditions: 10 µM unless noted
About 83,000 compounds went through this panel and 20% of them were active in at least one assay; those are over-represented in the sample as a whole.
Rule: true (1) for growth not less than 80%, false (0) for anything less.

As a guide, the following entries are already answered.
{"molecule": "Oc1ccc(Cl)cc1CNc1nc2ccccc2[nH]1", "target-or-test-system": "UO-31 renal", "category": "false (0)"}
{"molecule": "Cc1c(C)n(CC(O)CNC2CCCCC2C)c2ccccc12 (stereo not given)", "target-or-test-system": "UO-31 renal", "category": "false (0)"}
{"molecule": "CCCCCCCC/C=C\\CCCCCCCCOc1cccc(CC(=O)NCC[N+]2(C)CCCCC2)c1", "target-or-test-system": "UO-31 renal", "category": "true (1)"}

Shifting focus to the molecule that follows.
Evaluate COc1ccc(-c2nc3sc(C)nn3c2-c2nc3cc(C)c(C)cc3[nH]2)cc1 : growth at minimum 80%?
true (1)
